Tested on: Aβtotal produced and secreted into the medium of human neuroblastoma SKNBE2 cells
Test: Cellular αlisa assay in SKNBE2 cells, Aβtotal
Format: cell-based
Conditions: SKNBE2 cells expressing hAPP695, 18 hours incubation
endpoint.name: Cellular αlisa assay in SKNBE2 cells Aβtotal pIC50
Give only the figure.

Below, 5 compounds whose answers are already recorded.
CC1(c2cccc(NC(=O)c3ccc(Cl)cn3)c2)N=C(N)Cn2nccc21 (stereo not shown) [Compound 17] | 8.08
CC1(c2cc(-c3cc(Cl)cc(Cl)c3)ccc2F)N=C(N)Cn2nccc21 (racemic) [Compound 15] | 5.52
COc1cncc(-c2cccc(C3(C)N=C(N)Cn4nc(C(F)(F)F)cc43)c2)c1 (single isomer, unassigned) [Compound 22] | 6.18
COc1cnc(C(=O)Nc2ccc(F)c(C3(C)N=C(N)Cn4nc(C(F)(F)F)cc43)c2)cn1 (racemic) [Compound 30] | 6.78
COc1cncc(-c2cc(C3(C)N=C(N)Cn4nccc43)c(F)cc2F)c1 (racemic) [Compound 5] | 6.41

Attention now shifts to the item below.
### Prompt State its Cellular αlisa assay in SKNBE2 cells Aβtotal pIC50 on Aβtotal produced and secreted into the medium of human neuroblastoma SKNBE2 cells: COc1cncc(-c2cccc(C3(C)N=C(N)Cn4nccc43)c2)c1 (stereo not shown) [Compound 9]
### Response 6.94

---

Tested on: Aβtotal produced and secreted into the medium of human neuroblastoma SKNBE2 cells
Experiment: Cellular αlisa assay in SKNBE2 cells, Aβtotal
Type: cell-based
Settings: SKNBE2 cells expressing hAPP695, 18 hours incubation
endpoint.name: Cellular αlisa assay in SKNBE2 cells Aβtotal pIC50
Give only the figure.

Below, 5 molecules whose answers are already recorded.
COc1cnc(C(=O)Nc2ccc(F)c(C3(C)N=C(N)Cn4nc(C(F)(F)F)cc43)c2)cn1 (single isomer, unassigned) [Compound 31] | 6.99
CC1(c2cc(-c3cncnc3)ccc2F)N=C(N)Cn2nccc21 (racemic) | 5.48
COc1cccc(-c2cc(C3(C)N=C(N)Cn4nccc43)c(F)cc2F)c1 (racemic) | 6.13
COc1cnc(C(=O)Nc2ccc(F)c(C3(C4CC4)N=C(N)Cn4nccc43)c2)cn1 (stereo not shown) | 7.19
CC1(c2cc(-c3cccc(C#N)c3)c(F)cc2F)N=C(N)Cn2nccc21 (racemic) | 5.67

Attention now shifts to the item below.
### Prompt State its Cellular αlisa assay in SKNBE2 cells Aβtotal pIC50 on Aβtotal produced and secreted into the medium of human neuroblastoma SKNBE2 cells: CC1(c2cccc(-c3cccc(OC(F)(F)F)c3)c2)N=C(N)Cn2nccc21 (stereo not shown)
### Response 5.91

---

Documented melting point across a set of compounds
Write the number in °C without appending the unit.

Below, 4 compounds whose answers are already recorded.
COc1cccc(-c2cccc([C@@]3(C)N=C(N)Cn4nccc43)c2)c1 | 153.8
COc1cncc(-c2cccc(C3(C)N=C(N)Cn4nc(C(F)(F)F)cc43)c2)c1 (racemic) | 89.3
CC1(c2cc(NC(=O)c3ccc(Cl)cn3)ccc2F)N=C(N)Cn2nccc21 (single isomer, unassigned) | 199
CC1(c2cc(-c3cncnc3)c(F)cc2F)N=C(N)Cn2nccc21 (racemic) | 207

### Prompt What measured melting point goes with CC1(c2cc(-c3cncc(Cl)c3)ccc2F)N=C(N)Cn2nc(C(F)(F)F)cc21 (racemic) ?
### Response 175.2

### Prompt What measured melting point goes with `NC1=N[C@@](c2cc(NC(=O)c3ncc(Cl)cc3F)ccc2F)(C2CC2)c2ccnn2C1` ?
### Response 272.6

### Prompt What measured melting point goes with CC1(c2cc(NC(=O)c3ncc(Cl)cc3Cl)ccc2F)N=C(N)Cn2nc(C(F)(F)F)cc21 (racemic) ?
### Response 198

### Prompt What measured melting point goes with COc1cncc(-c2cccc(C3(C)N=C(N)Cn4nccc43)c2)c1 (racemic) ?
### Response 191.8

---

Documented Biochemical FRET based assay pIC50 across a set of molecules
Molecular target: recombinant BACE1 protein (Homo sapiens)
Construct: recombinant BACE1 protein in a final concentration of 1 μg/ml
Assay: Biochemical FRET based assay
Conditions: recombinant BACE1 1 μg/ml, 120 min, room temperature, pH 5.0
Give only the figure.

COc1cnc(C(=O)Nc2ccc(F)c(C3(C)N=C(N)Cn4nc(C(F)(F)F)cc43)c2)cn1 (single isomer, unassigned) [Compound 31] | 6.73
COc1cncc(-c2cc(C3(C)N=C(N)Cn4nccc43)c(F)cc2F)c1 (racemic) | 5.49
CC1(c2cccc(-c3cc(Cl)cc(Cl)c3)c2)N=C(N)Cn2nccc21 (centres unmarked) | 6.76
CC1(c2cc(NC(=O)c3ccc(Cl)cn3)ccc2F)N=C(N)Cn2nccc21 (racemic) | 6.84
CC1(c2cc(-c3cncnc3)ccc2F)N=C(N)Cn2nccc21 (racemic) | 4.98

### Prompt State its Biochemical FRET based assay pIC50 on recombinant BACE1 protein (Homo sapiens): CC1(c2cccc(-c3cccc(OC(F)(F)F)c3)c2)N=C(N)Cn2nccc21 (centres unmarked)
### Response 5.77

### Prompt State its Biochemical FRET based assay pIC50 on recombinant BACE1 protein (Homo sapiens): COc1cnc(C(=O)Nc2ccc(F)c(C3(C)N=C(N)Cn4nc(C(F)(F)F)cc43)c2)cn1 (racemic) [Compound 30]
### Response 6.68

---

Tested on: Aβtotal produced and secreted into the medium of human neuroblastoma SKNBE2 cells
Experiment: Cellular αlisa assay in SKNBE2 cells, Aβtotal
Format: cell-based
Settings: SKNBE2 cells expressing hAPP695, 18 hours incubation
endpoint.name: Cellular αlisa assay in SKNBE2 cells Aβtotal pIC50
Give only the figure.

### Prompt What measured Cellular αlisa assay in SKNBE2 cells Aβtotal pIC50 goes with CC1(c2cc(-c3cncc(Cl)c3)ccc2F)N=C(N)Cn2nc(C(F)(F)F)cc21 (single isomer, unassigned) [Compound 25] ?
### Response 5.64

### Prompt What measured Cellular αlisa assay in SKNBE2 cells Aβtotal pIC50 goes with CC1(c2cc(NC(=O)c3ccc(Cl)cn3)ccc2F)N=C(N)Cn2nccc21 (single isomer, unassigned) [Compound 10] ?
### Response 5.44

### Prompt What measured Cellular αlisa assay in SKNBE2 cells Aβtotal pIC50 goes with CC1(c2cc(NC(=O)c3ccc(Cl)cn3)ccc2F)N=C(N)Cn2nccc21 (racemic) [Compound 13] ?
### Response 7.73

### Prompt What measured Cellular αlisa assay in SKNBE2 cells Aβtotal pIC50 goes with CC1(c2cc(NC(=O)c3ccc(Cl)cn3)ccc2F)N=C(N)Cn2nccc21 (single isomer, unassigned) [Compound 11] ?
### Response 8.37

### Prompt What measured Cellular αlisa assay in SKNBE2 cells Aβtotal pIC50 goes with CC1(c2cc(NC(=O)c3ncc(Cl)cc3Cl)ccc2F)N=C(N)Cn2nc(C(F)(F)F)cc21 (single isomer, unassigned) [Compound 28] ?
### Response 7.1

---

Target: recombinant BACE1 protein (Homo sapiens)
Construct: recombinant BACE1 protein in a final concentration of 1 μg/ml
Assay: Biochemical FRET based assay
Details: recombinant BACE1 1 μg/ml, 120 min, room temperature, pH 5.0
endpoint.name: Biochemical FRET based assay pIC50
Give only the figure.

COc1cncc(-c2cccc(C3(C)N=C(N)Cn4nccc43)c2)c1 (stereo not shown) | 6.05

### Prompt What measured Biochemical FRET based assay pIC50 goes with COc1cnc(C(=O)Nc2ccc(F)c(C3(C4CC4)N=C(N)Cn4nccc43)c2)cn1 (stereo not shown) ?
### Response 6.51

### Prompt What measured Biochemical FRET based assay pIC50 goes with CC1(c2cc(-c3cccc(C#N)c3)c(F)cc2F)N=C(N)Cn2nccc21 (racemic) ?
### Response 4.75

### Prompt What measured Biochemical FRET based assay pIC50 goes with CC1(c2cc(-c3ccccc3)c(F)cc2F)N=C(N)Cn2nccc21 (racemic) ?
### Response 4.88

---

Molecular target: recombinant BACE1 protein (Homo sapiens)
Construct: recombinant BACE1 protein in a final concentration of 1 μg/ml
Assay: Biochemical FRET based assay
Settings: recombinant BACE1 1 μg/ml, 120 min, room temperature, pH 5.0
Documented Biochemical FRET based assay pIC50 across a set of compounds
Give only the figure.

Below, 3 compounds whose answers are already recorded.
CC1(c2cc(-c3cc(Cl)cc(Cl)c3)ccc2F)N=C(N)Cn2nccc21 (racemic) [Compound 15] | 5.68
CC1(c2cccc(-c3cc(F)cc(F)c3)c2)N=C(N)Cn2nccc21 (stereo not shown) [Compound 14] | 6.11
COc1cccc(-c2cc(C3(C)N=C(N)Cn4nccc43)c(F)cc2F)c1 (racemic) [Compound 6] | 5.53

Attention now shifts to the item below.
### Prompt What measured Biochemical FRET based assay pIC50 goes with CC1(c2cccc(-c3cncnc3)c2)N=C(N)Cn2nccc21 (stereo not shown) [Compound 8] ?
### Response 5.65

---

Biological target: recombinant BACE1 protein (Homo sapiens, UniProt P56817)
Construct: recombinant BACE1 protein in a final concentration of 1 μg/ml
Sequence (P56817 46-501): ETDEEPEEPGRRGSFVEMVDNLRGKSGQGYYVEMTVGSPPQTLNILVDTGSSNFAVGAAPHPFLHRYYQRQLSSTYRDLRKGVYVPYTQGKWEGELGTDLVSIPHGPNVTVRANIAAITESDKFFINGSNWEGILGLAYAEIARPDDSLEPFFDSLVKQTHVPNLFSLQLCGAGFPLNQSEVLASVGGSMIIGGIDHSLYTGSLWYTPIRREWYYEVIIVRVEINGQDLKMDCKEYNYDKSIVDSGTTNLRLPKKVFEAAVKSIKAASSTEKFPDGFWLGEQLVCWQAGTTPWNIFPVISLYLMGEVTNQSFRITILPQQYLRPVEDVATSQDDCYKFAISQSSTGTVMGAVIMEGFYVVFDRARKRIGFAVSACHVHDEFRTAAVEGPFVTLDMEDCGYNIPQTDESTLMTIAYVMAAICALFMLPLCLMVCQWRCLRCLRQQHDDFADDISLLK
Assay: Biochemical FRET based assay
Details: recombinant BACE1 1 μg/ml, 120 min, room temperature, pH 5.0; read-out: Biochemical FRET based assay pIC50 (converted)
endpoint.name: IC50 (µM)
Write the number in µM without appending the unit.

Below, 2 molecules whose answers are already recorded.
CC1(c2cc(-c3cncc(Cl)c3)ccc2F)N=C(N)Cn2nc(C(F)(F)F)cc21 (single isomer, unassigned) [Compound 25] | 3.63
CC1(c2cc(NC(=O)c3ncc(Cl)cc3Cl)ccc2F)N=C(N)Cn2nc(C(F)(F)F)cc21 (stereo not drawn) [Compound 27] | 0.145

### Prompt What measured IC50 goes with CC1(c2cc(NC(=O)c3ncc(Cl)cc3Cl)ccc2F)N=C(N)Cn2nc(C(F)(F)F)cc21 (single isomer, unassigned) [Compound 29] ?
### Response 15.5

### Prompt What measured IC50 goes with CC1(c2cccc(-c3cncnc3)c2)N=C(N)Cn2nccc21 (racemic) ?
### Response 3.31

### Prompt What measured IC50 goes with `NC1=N[C@@](c2cc(NC(=O)c3ncc(Cl)cc3F)ccc2F)(C2CC2)c2ccnn2C1` ?
### Response 0.309
